Origin of measurements: patent US11753373B2

# SYSTEM TESTED: SARS-CoV-2 M^pro (3CL protease) (Severe acute respiratory syndrome coronavirus 2 (2019-nCoV) (SARS-CoV-2))
# Type: biochemical
# CONDITIONS USED: read-out: SARS-CoV-2M^pro inhibition IC50; wild type Mpro 17 nM, substrate 40 uM
I'd appreciate it if you marked entries rule met when IC50 is lower than 7 nM and rule not met when it is not.

Below, 4 molecules whose answers are already recorded.
CC(C)C[C@H](NC(=O)C(F)(F)F)C(=O)N1C[C@H]2[C@@H]([C@H]1C(=O)N[C@H](C#N)C[C@@H]1CCNC1=O)C2(C)C = rule not met
CC(C)C(=O)N[C@H](C(=O)N1C[C@H]2[C@@H]([C@H]1C(=O)N[C@@H](C[C@@H]1CCNC1=O)C(N)=O)C2(C)C)C(C)(C)C = rule met
CC(C)C[C@H](NC(=O)c1cc2ccccc2[nH]1)C(=O)N1C[C@H]2[C@@H]([C@H]1C(=O)N[C@H](C#N)C[C@@H]1CCNC1=O)C2(C)C = rule not met
CC(C)C[C@H](NC(=O)c1cc2ccccc2[nH]1)C(=O)N1C[C@H]2[C@@H]([C@H]1C(=O)N[C@H](C(=O)CCl)C(C)C)C2(C)C = rule not met

# input Is the reported IC50 for CC(C)C[C@H](NC(=O)c1cc2ccccc2[nH]1)C(=O)N1C[C@H]2[C@@H]([C@H]1C(=O)N[C@H](C=O)C(C)C)C2(C)C strictly below 7 nM?
# output rule not met

# input Is the reported IC50 for CC(C)(C)[C@H](NC(=O)C1CC1)C(=O)N1C[C@H]2[C@@H]([C@H]1C(=O)N[C@H](C#N)C[C@@H]1CCNC1=O)C2(C)C strictly below 7 nM?
# output rule met

# input Is the reported IC50 for CC(C)C(=O)N[C@H](C(=O)N1C[C@H]2[C@@H]([C@H]1C(=O)N[C@H](C#N)C[C@@H]1CCNC1=O)C2(C)C)C1CC1 strictly below 7 nM?
# output rule not met

# input Is the reported IC50 for CC(C)C[C@H](NC(=O)C(F)F)C(=O)N1C[C@H]2[C@@H]([C@H]1C(=O)N[C@H](C=O)C[C@@H]1CCNC1=O)C2(C)C strictly below 7 nM?
# output rule met

# input Is the reported IC50 for CC(C)C[C@H](CC(=O)[C@@H](NC(=O)OCc1ccccc1)[C@@H](C)OC(C)(C)C)C(=O)N[C@H](C=O)C[C@@H]1CCNC1=O strictly below 7 nM?
# output rule met

# input Is the reported IC50 for Cc1cccc2[nH]c(C(=O)N[C@@H](CC(C)C)C(=O)N[C@@H](C[C@@H]3CCNC3=O)C(=O)CO)cc12 strictly below 7 nM?
# output rule met

# input Is the reported IC50 for CC(C)(C)[C@H](NC(=O)C(F)(F)F)C(=O)N1C[C@H]2[C@@H]([C@H]1C(=O)N[C@H](C=O)C[C@@H]1CCNC1=O)C2(C)C strictly below 7 nM?
# output rule met
